- Test system: HOP-92 NSCLC
- TEST_NAME: NCI-60 one-dose screen, 48 h
- CONDITION_NOTES: 10 µM unless noted
The panel holds about 83,000 compounds, 20% with a hit somewhere; the sample as a whole holds those more often. Active and inactive are the calls of the source. Rule for the calls: active = growth percent below 10; inactive = the rest.
Outcome codes: 1 (active), 0 (inactive)

INSERT INTO results (molecule, subject_of_test, answer_label) VALUES
  ('CCCCCCCCN(CCCCCCCC)CC(O)c1cc(Cl)ccc1OC (stereo not given)', 'HOP-92 NSCLC', 0),
  ('C[N+]1=C(/C=C\C=C\c2ccccc2)C(C)(C)c2ccccc21', 'HOP-92 NSCLC', 1),
  ('CN1C(=O)/C(=C/c2ccc(C(=O)Nc3ncc(Cc4ccccc4Cl)s3)cc2)SC1=S', 'HOP-92 NSCLC', 0),
  ('O=C1/C(=C/c2ccccc2)CN(C(=O)C(Cl)Cl)C/C1=C\c1ccccc1', 'HOP-92 NSCLC', 0),
  ('CCn1cc(C(=O)NN=C2CCCC2)c(=O)c2ccc(C)nc21', 'HOP-92 NSCLC', 0),
  ('O=C(CCCCCCCCC(=O)N/N=C\c1ccccc1O)N/N=C\c1ccccc1O', 'HOP-92 NSCLC', 0),
  ('CS(=O)(=O)Nc1cc(-c2ccc3ncnc(Nc4ccc(F)c(Cl)c4)c3c2)cnc1Cl', 'HOP-92 NSCLC', 1),
  ('CN1C(=O)N(C)C2(c3ccccc3)N(CC(=O)Nc3ccccc3O)C(=O)NC12c1ccccc1 (stereo not given)', 'HOP-92 NSCLC', 0),
  ('CCOC(=O)n1cc(-c2nonc2-c2cn(C)c3ccc(OC)cc23)c2cc(F)ccc21', 'HOP-92 NSCLC', 0),
  ('COc1ccccc1/C=C1\COc2ccc(O)c(O)c2C1=O', 'HOP-92 NSCLC', 0);
